Reference for the values: PubChem BioAssay (EPA / NIEHS)

# assay: ATG_M_19_CIS: Attagene CIS-FACTORIAL HepG2 Assay for M19 Transcription Factor (Internal Marker) (AID 2282939)
# settings: HepG2 Attagene CIS-FACTORIAL M19 internal marker reporter; actives raise or lower the signal
Activity calls are given as the source filed them. Rule for the calls: active = hit-call score of the fitted dose curve at least 0.9, where 1 is the maximum; inactive = score below 0.9.
Outcome (select one): active, inactive

Observe how each entry below is paired with its result.
> print(dat)
                                   compound     class
1  CCc1cccc(C)c1N(C(=O)CS(=O)(=O)O)C(C)COC (centres undefined)  inactive
2  CC(C)(CO)C(O)C(=O)NCCCO (centres undefined)  inactive
3    CC1=CC(C)C(C=O)CC1 (centres undefined)  inactive
4                                  CCCCCCCO  inactive
5  CC1=CP(=O)(c2ccccc2)CC1 (centres undefined)  inactive

Query: Returns: the outcome recorded for C=C(C)OC(C)=O in this assay.
Response: inactive

Query: Would you mind telling me which call this test gave Clc1cc(Cl)c(Cl)c(Cl)c1Cl ?
Response: inactive

Query: Outcome logged for CCc1cccc(C)c1N in this assay:
Response: inactive

Query: recorded result category for C[Si]1(C)O[Si](C)(C)O[Si](C)(C)O[Si](C)(C)O[Si](C)(C)O1 in this test
Response: inactive

Query: What did this assay record as the result for Cn1cccc1 ?
Response: inactive

* * *

# assay: ATG_TA_CIS: Attagene CIS-FACTORIAL HepG2 Assay for human TA Basal Promoter (AID 2282964)
# settings: HepG2 Attagene CIS-factorial TA basal promoter reporter; actives raise or lower the signal
Activity calls are given as the source filed them. How the source made its calls: active means hit-call score of the fitted dose curve at least 0.9, where 1 is the maximum; inactive means score below 0.9.
Reply using exactly one outcome from Yes for active, No for inactive

Completed entries (count: 5):
> print(dat)
                                   compound  class
1                  C=C(C)C(=O)OCCCCCCCCCCCC     No
2                           CC(=O)c1ccccc1O     No
3  CC1=NN(c2ccc(S(=O)(=O)O)cc2)C(=O)C1N=Nc1ccccc1 (configuration not stated)     No
4                      C=Cc1ccc(OC(C)=O)cc1     No
5              COc1ccc(C(=O)c2ccccc2)c(O)c1    Yes

Query: Returns: the outcome recorded for CC(C)=CCl in this assay.
Response: No

Query: State the result this test recorded for N#CC1(N)CCCCC1 .
Response: No

Query: Identify the outcome logged in this assay for the compound shown: CC(=O)CCC=C(C)C
Response: No

Query: Just curious, what result did CC(C)COC(=O)CC(C(=O)OCC(C)C)S(=O)(=O)O (configuration not stated) get here?
Response: No

Query: Could you please tell me the result logged for Cc1c(C(=O)c2c[nH]n(C)c2=O)ccc(S(C)(=O)=O)c1C1=NOCC1 in this assay?
Response: No

Query: Write down the call the test reported for this compound. Item: C=CCCCCCCCCOC(C)=O
Response: No

Query: Dear all, I need the recorded test outcome for CCCC(CC)c1ccccc1 (configuration not stated) , thank you.
Response: No

* * *

# testedSystem: Hypoxia-inducible factor 1-alpha (Homo sapiens)
# assay: ATG_HIF1a_CIS: Attagene CIS-FACTORIAL HepG2 Assay for human Hypoxia Inducible Factor 1 (HIF1A) (AID 2282951)
# settings: HepG2 Attagene cis-factorial HIF1a reporter transcription; actives raise or lower the signal
Active and inactive are the calls of the source. How the source made its calls: active means hit-call score of the fitted dose curve at least 0.9, where 1 is the maximum; inactive means score below 0.9.
Use one of these outcomes when replying: True = active, False = inactive

compound	class
CC(=O)OC1CCCCC1	False
CC=C(C)C(C)=O	False
CC1CCC(C(C)(C)S)C(=O)C1 (stereo not given)	False

Query: Can you look up the reported call for Nc1ccc(Cl)c(N)c1 for me?
Response: False

Query: Recorded test call requested for CC12CCC(CC1)C(C)(C)O2
Response: False

Query: Entry CCOC(=O)c1ccc(C)cc1 : call = ?
Response: False

Query: Which outcome was entered for the compound CC(=O)C(C)C in this test?
Response: False

Query: What classification did COC(=O)C=Cc1ccccc1 end up with in this test?
Response: False

* * *

# assay: ATG_GATA_CIS: Attagene CIS-FACTORIAL HepG2 Assay for human GATA Binding Protein (AID 2282944)
# settings: HepG2 GATA cis-element reporter, Attagene multiplex mRNA; actives raise or lower the signal
Active and inactive are the calls of the source. Rule for the calls: active = hit-call score of the fitted dose curve at least 0.9, where 1 is the maximum; inactive = score below 0.9.
Pick one and only one: active, inactive

A selection of reference data follows.
> print(dat)
                                   compound     class
1  Cc1c(C(=O)c2c[nH]n(C)c2=O)ccc(S(C)(=O)=O)c1C1=NOCC1  inactive
2                  CCCCCCCCCCCCCC(=O)OC(C)C  inactive

Query: Could you check what this test reported for CC(CC=O)CC(C)(C)C (stereo unspecified) ?
Response: inactive

* * *

# testedSystem: Cellular tumor antigen p53 (Homo sapiens)
# assay: TOX21_p53_BLA_p3_ratio: Tox21 HCT-116 p53 Agonism Beta-lactamase Assay, Ratio, Phase 3 (AID 2283596)
Records with an inconclusive call do not appear. Calls of active or inactive are those of the source. Rule for the calls: active = hit-call score of the fitted dose curve at least 0.9, where 1 is the maximum; inconclusive = response in the unintended direction; inactive = score below 0.9.
// classify into yes (active), no (inactive)

> print(dat)
                                   compound                              testedsystem  class
1  CCCCCCCC(=O)OCC(COC(=O)CCCCCCC)OC(=O)CCCCCCC  Cellular tumor antigen p53 (Homo sapiens)     no
2  COC(=O)CC(C)CCC=C(C)C (configuration not stated)  Cellular tumor antigen p53 (Homo sapiens)     no
3                       CCOC(=O)c1ccc(C)cc1  Cellular tumor antigen p53 (Homo sapiens)     no
4                  O=C(OCCc1ccccc1)c1ccccc1  Cellular tumor antigen p53 (Homo sapiens)     no
5                  Clc1cc(Cl)c(Cl)c(Cl)c1Cl  Cellular tumor antigen p53 (Homo sapiens)     no

Query: Test call, this compound: O=C(Nc1ccccc1)c1cc(Cl)ccc1O
Response: yes

Query: Tell me the recorded outcome of this test for O=S(=O)(O)c1ccc(N=Nc2c(O)ccc3ccccc23)cc1 .
Response: no

* * *

# testedSystem: Glucocorticoid receptor (Homo sapiens) (UniProt P04150)
# Sequence (P04150 whole entry, looked up): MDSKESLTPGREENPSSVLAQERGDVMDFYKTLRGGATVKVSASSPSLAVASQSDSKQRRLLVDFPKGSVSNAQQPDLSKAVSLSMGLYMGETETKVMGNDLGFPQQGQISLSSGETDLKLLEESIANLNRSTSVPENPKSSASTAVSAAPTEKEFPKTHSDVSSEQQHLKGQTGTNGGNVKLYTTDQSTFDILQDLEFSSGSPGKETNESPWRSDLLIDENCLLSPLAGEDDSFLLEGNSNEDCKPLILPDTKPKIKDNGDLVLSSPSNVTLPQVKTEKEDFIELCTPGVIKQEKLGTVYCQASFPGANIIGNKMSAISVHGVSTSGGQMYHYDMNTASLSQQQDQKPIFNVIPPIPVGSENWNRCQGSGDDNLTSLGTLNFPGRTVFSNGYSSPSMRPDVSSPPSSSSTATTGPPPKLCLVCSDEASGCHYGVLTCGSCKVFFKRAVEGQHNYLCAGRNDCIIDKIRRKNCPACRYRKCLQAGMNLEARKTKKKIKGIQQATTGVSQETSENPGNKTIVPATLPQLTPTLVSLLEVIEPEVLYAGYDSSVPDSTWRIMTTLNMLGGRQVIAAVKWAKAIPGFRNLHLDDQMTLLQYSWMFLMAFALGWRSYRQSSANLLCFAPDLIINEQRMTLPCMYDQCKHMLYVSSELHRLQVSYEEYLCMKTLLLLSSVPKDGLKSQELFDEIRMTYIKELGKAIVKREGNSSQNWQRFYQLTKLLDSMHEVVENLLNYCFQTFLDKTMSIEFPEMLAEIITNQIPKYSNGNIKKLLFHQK
# assay: ATG_GR_TRANS: Attagene TRANS-FACTORIAL HepG2 Assay for human Glucocorticoid Receptor (GR) (AID 2282978);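 note: activators score as hits since higher reporter transcript over DMSO is fitted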
# settings: HepG2 Attagene TRANS GR reporter, mRNA transcription
Inconclusive results are not listed. Activity calls are given as the source filed them. How the source made its calls: active means hit-call score of the fitted dose curve at least 0.9, where 1 is the maximum; inconclusive means response in the unintended direction; inactive means score below 0.9.
Valid outcomes are listed here; reply with one: yes (1) (active), no (0) (inactive)

Consider the worked cases shown below.
> print(dat)
                                   molecule    class
1                     CC(C)c1cccc(C(C)C)c1N   no (0)
2                        CC(C)CCCCCOC(=O)CS   no (0)
3             CCCCOCCOC(=O)COc1ccc(Cl)cc1Cl   no (0)
4     CCCCC1C(=O)N(c2ccccc2)N(c2ccccc2)C1=O   no (0)
5  C=C1C[C@H]2[C@@H]3C=C(C)C4=CC(=O)CC[C@]4(C)[C@H]3CC[C@]2(C)[C@@]1(OC(C)=O)C(C)=O  yes (1)

Please find the next molecule below.
Query: Call for entry C=CC(C)(O)CC/C=C(\C)CC (configuration not stated) :
Response: no (0)

* * *

# assay: ATG_AP_1_CIS: Attagene CIS-FACTORIAL HepG2 Assay for human Activator Protein 1 (AP-1) (AID 2282931)
# settings: HepG2 Attagene cis-factorial AP-1 reporter mRNA; actives raise or lower the signal
Activity calls are given as the source filed them. How the source made its calls: active means hit-call score of the fitted dose curve at least 0.9, where 1 is the maximum; inactive means score below 0.9.
Give your call using only these classes: active, inactive

> print(dat)
                   compound     class
1  Clc1cc(Cl)c(Cl)c(Cl)c1Cl  inactive

Let us examine a further case.
Query: What outcome does the record of this test show for CC(C)(O)Cc1ccccc1 ?
Response: inactive

* * *

# Read-out: Interleukin 17F (IL17F), IL17F (gene 112744)
# assay: BSK_BT_xIL17F: BioMAP Diversity Plus: BT Assay for Interleukin 17F (IL17F) Biomarker Activity (AID 2284243)
# settings: primary human B cells with PBMC
The source made the active and inactive calls. Rule for the calls: active = hit-call score of the fitted dose curve at least 0.9, where 1 is the maximum; inactive = score below 0.9.
Allowed answers: label 1 for active, label 0 for inactive

> print(dat)
        compound    class
1  CC=C(C)C(C)=O  label 0

Query: Tell me the recorded outcome of this test for CC/C=C\CCOC(=O)c1ccccc1O .
Response: label 1

Query: Which outcome was assigned to O=C1CCCCCCCCCCC1 in this test?
Response: label 0

Query: What is the recorded call for this compound in the test? Clc1cc(Cl)c(Cl)c(Cl)c1Cl
Response: label 0

Query: GET /call?item= C=CC(=O)NCOCCCC returns the recorded outcome of this test.
Response: label 0

Query: Test call, this compound: CCCCCCCCC(CO)CCCCCC (centres undefined)
Response: label 0

Query: Record lookup: outcome of this test for CCCCCC1=CCCC1=O ?
Response: label 0

Query: Short answer needed: outcome of this test for C=CC(=O)OCCCCCCOC(=O)C=C ?
Response: label 1

Query: Called result for CC(C)c1cccc(C(C)C)c1N
Response: label 0

Query: Test call, this compound: CCCCCCOC(=O)CCCCC(=O)OCCCCCC
Response: label 0

Query: Could you check what this test reported for COC(OC)(C(=O)c1ccccc1)c1ccccc1 ?
Response: label 0

Query: What did this assay record as the result for CCOC(=O)C1=NOC(c2ccccc2)(c2ccccc2)C1 ?
Response: label 0

Query: What is the recorded call for this compound in the test? CC(C)[N+](C)(CCOC(=O)C1c2ccccc2Oc2ccccc21)C(C)C
Response: label 0

Query: Fill in: this test's call for CCCCCCCCCCCC(C)=O is ___
Response: label 0

Query: // outcome(item) with item = C=CC(=O)OCCCCCCCC(C)C
Response: label 0

Query: Which outcome did this test record for the compound Nc1cccc(N)n1 ?
Response: label 0

Query: Assay result, entry COc1ccc(C(=O)c2ccccc2)c(O)c1 — outcome?
Response: label 0

Query: Given CC(c1cc(C(C)(C)C)cc(C(C)(C)C)c1O)c1cc(C(C)(C)C)cc(C(C)(C)C)c1O , state the outcome it received in this test.
Response: label 1
